SYSTEM_UNDER_TEST: C_A84I-SQR (SDHC_A84I), IPO323_Flu21 mitochondria (Zymoseptoria tritici, UniProt F9X9V6+F9XH52+O42772, A84I)
METHOD_NOTES: Succinate-quinone (SQR) SDHI sensitivity assay on purified mitochondria, IPO323_Flu21
EXPERIMENTAL_CONDITIONS: mitochondria of UV mutant IPO323_Flu21; mean of three ± SD
Binning rule for recorded IC50: label 0: < 30 nM; label 1: ≥ 30 nM and < 1000 nM; label 2: ≥ 1000 nM

Example entries begin here.
molecule="CC1=C(C(=O)Nc2ccccc2)SCCO1 [Carboxin]" cat="label 2"
molecule="Cn1cc(C(=O)NCCc2ccc(Cl)cc2Cl)c(C(F)F)n1 [Compound 1]" cat="label 2"

Data request: Lab note: which band did CON(C(=O)c1cn(C)nc1C(F)F)[C@@H](C)Cc1ccc(Cl)cc1Cl [Compound 3] land in?
Data returned: label 0

Data request: Any idea which band O=C(Nc1ccccc1-c1ccc(Cl)cc1)c1cccnc1Cl [Boscalid] is in?
Data returned: label 1

Data request: State the band of C[C@@H](Cc1ccc(Cl)cc1Cl)NC(=O)c1cn(C)nc1C(F)F [Compound 2]
Data returned: label 1

* * *

SYSTEM_UNDER_TEST: C_A84I-SQR (SDHC_A84I), IPO323_Flu21 mitochondria (Zymoseptoria tritici, UniProt F9X9V6+F9XH52+O42772, A84I)
METHOD_NOTES: Succinate-quinone (SQR) SDHI sensitivity assay on purified mitochondria, IPO323_Flu21
EXPERIMENTAL_CONDITIONS: mitochondria of UV mutant IPO323_Flu21; mean of three ± SD
So I've got a bunch of molecules here, and I need their IC50 values.
Give bare numbers, in nM.

molecule="CON(C(=O)c1cn(C)nc1C(F)F)[C@@H](C)Cc1c(Cl)cc(Cl)cc1Cl [Pydiflumetofen]" unit_abbrev=nM observed_value=2
molecule="Cc1cc(OC(C)C)ccc1C(=O)C(C)(C)NC(=O)c1sccc1C [Isofetamid]" unit_abbrev=nM observed_value=21400
molecule="CC(C)CC(C)c1sccc1NC(=O)c1cn(C)nc1C(F)(F)F (stereo not shown) [Penthiopyrad]" unit_abbrev=nM observed_value=4.6

For the next question, use this molecule.
Lab note: O=C(NCCc1ncc(C(F)(F)F)cc1Cl)c1ccccc1C(F)(F)F [Fluopyram] gave IC50 of 1440

Entry source: paper PMC6941823
